# Recorded Conditions: in 2-butanone, 318.15 K

{"Query Smiles": "N#CCc1ccccc1[N+](=O)[O-]", "solubility (mole fraction)": 0.357}

----------
# Recorded Conditions: in acetonitrile, 288.15 K

{"Query Smiles": "N#CCc1ccccc1[N+](=O)[O-]", "solubility (mole fraction)": 0.124}

----------
# Recorded Conditions: in acetone, 328.15 K

{"Query Smiles": "N#CCc1ccccc1[N+](=O)[O-]", "solubility (mole fraction)": 0.506}

----------
# Recorded Conditions: in water, 328.15 K

{"Query Smiles": "N#CCc1ccccc1[N+](=O)[O-]", "solubility (mole fraction)": 0.000274}
